Cited source: ChEMBL document CHEMBL4257451

Task for the reader: assign each of the following compounds its reported fractional inhibitory concentration index (FICI).
# Tested on: Klebsiella pneumoniae
# protocol.details: Synergistic antibacterial activity against Klebsiella pneumoniae SIPI-KPN-1712 assessed as fractional Inhibitory concentration index in presence of polymixin B at 2 ug/ml by broth microdilution method
# Type: functional
Give bare numbers.

Look over these answered cases.
| compound | system.name | reported.result |
| --- | --- | --- |
| CCCOC1CCCc2nc(Nc3ccc(C)cc3)sc21 (stereo not drawn) | Klebsiella pneumoniae | 0.53 |
| COC1CCCc2nc(Nc3ccc(N(C)C)cc3)sc21 (stereo not drawn) | Klebsiella pneumoniae | 0.53 |

q: Find the recorded fractional inhibitory concentration index (FICI) belonging to CC(C)OC1CCCc2nc(Nc3ccc(Cl)cc3)sc21 (stereo not drawn) and report it.
a: 0.06

###

# System: Klebsiella pneumoniae
# protocol.details: Synergistic antibacterial activity against Klebsiella pneumoniae SIPI-KPN-1712 assessed as fractional Inhibitory concentration index in presence of polymixin B at 2 ug/ml by broth microdilution method
# Type: functional
Record form. Attribute: fractional inhibitory concentration index (FICI). Fill in for each entry.
One number for each entry.

| molecule | reported.result |
| --- | --- |
| COC1CCCc2nc(Nc3ccc(C#N)c(C(F)(F)F)c3)sc21 (stereo unspecified) | 0.53 |
| FC(F)(F)c1ccc2nc(Nc3ccccc3)sc2c1 | 0.53 |
| COC1CCCc2nc(Nc3ccc(Oc4ccccc4C)cc3)sc21 (stereo unspecified) | 0.53 |

Go through the list and state fractional inhibitory concentration index (FICI) for each entry.
1. COc1cc(Nc2nc3c(s2)C(OC)CCC3)cc(OC)c1OC (stereo unspecified)
2. Cc1ccc(Nc2nc3c(s2)C(O)CCC3)cc1 (stereo unspecified)
3. COC1CCCc2nc(Nc3ccc(Cl)cc3)sc21 (stereo unspecified)
4. COC1CCCc2nc(Nc3ccc(C(C)(C)C)cc3)sc21 (stereo unspecified)
5. COC1CCCc2nc(Nc3c(Cl)cccc3Cl)sc21 (stereo unspecified)
6. COC1CCCc2nc(Nc3ccc(Br)cc3)sc21 (stereo unspecified)
7. Clc1ccc(Nc2nc3c(s2)C(OC2CCCC2)CCC3)cc1 (stereo unspecified)
8. COC1CCCc2nc(Nc3ccc(C(F)(F)F)cc3Cl)sc21 (stereo unspecified)

a:
1. 0.53
2. 1.03
3. 0.06
4. 0.53
5. 0.06
6. 0.09
7. 0.28
8. 0.16

For each of the items listed, what is its fractional inhibitory concentration index (FICI)?
1. CCCC(CCC)OC1CCCc2nc(Nc3ccc(Cl)cc3)sc21 (stereo unspecified)
2. COC1CCCc2nc(Nc3ccccc3C(F)(F)F)sc21 (stereo unspecified)
3. COC1CCCc2nc(NN3CCOCC3)sc21 (stereo unspecified)
4. CCCCOC1CCCc2nc(Nc3ccc(Cl)cc3)sc21 (stereo unspecified)
5. OC1CCCc2nc(Nc3ccc(C(F)(F)F)cc3)sc21 (stereo unspecified)
6. O=C(OC1CCCc2nc(Nc3ccc(Cl)cn3)sc21)n1ccnc1 (stereo unspecified)
7. CCOC1CCCc2nc(Nc3ccc(Br)cc3)sc21 (stereo unspecified)

a:
[0.16, 0.53, 0.53, 0.53, 0.53, 0.53, 0.09]

###

# Tested on: Klebsiella pneumoniae
# protocol.details: Synergistic antibacterial activity against Klebsiella pneumoniae SIPI-KPN-1712 assessed as polymixin B MIC at 4 ug/ml by broth microdilution method (reference value: 32 ug/ml)
# Assay type: functional
readout.name: MIC (µg/mL)
Numbers only, in µg/mL.

Please review the entries below; each comes with its answer.
| compound | system.name | readout.name | reported.result |
| --- | --- | --- | --- |
| CCOC1CCCc2nc(Nc3ccc(Br)cc3)sc21 (stereo not drawn) | Klebsiella pneumoniae | MIC | 2 |
| CCCOC1CCCc2nc(Nc3ccc(C)cc3)sc21 (stereo not drawn) | Klebsiella pneumoniae | MIC | 16 |
| COc1ccc(Nc2nc3c(s2)C(OC)CCC3)cc1 (stereo not drawn) | Klebsiella pneumoniae | MIC | 16 |
| COC1CCCc2nc(Nc3ccc(C)cc3)sc21 (stereo not drawn) | Klebsiella pneumoniae | MIC | 16 |
| Cc1ccc(Nc2nc3c(s2)C(OC(C)C)CCC3)cc1 (stereo not drawn) | Klebsiella pneumoniae | MIC | 16 |

// for each compound below, give its MIC
1. O=C(OC1CCCc2nc(Nc3ccccc3)sc21)n1ccnc1 (stereo not drawn)
2. OC1CCCc2nc(Nc3ccc(Cl)cc3)sc21 (stereo not drawn)
3. COC1CCCc2nc(Nc3ccc(Cl)cc3Cl)sc21 (stereo not drawn)
4. CCOC1CCCc2nc(Nc3ccc(Oc4ccccc4C)cc3)sc21 (stereo not drawn)
5. COC1CCCc2nc(Nc3ccc(Cl)cc3)sc21 (stereo not drawn)
6. COC1CCCc2nc(Nc3ccc(O)cc3)sc21 (stereo not drawn)
7. CC(=O)c1ccc(Nc2nc3c(s2)C(O)CCC3)cc1 (stereo not drawn)
8. COC1CCCc2nc(Nc3ccc([N+](=O)[O-])cc3)sc21 (stereo not drawn)

a:
1. 16
2. 0.5
3. 8
4. 32
5. 1
6. 32
7. 16
8. 16

###

# System: Klebsiella pneumoniae
# protocol.details: Synergistic antibacterial activity against Klebsiella pneumoniae SIPI-KPN-1712 assessed as fractional Inhibitory concentration index in presence of polymixin B at 2 ug/ml by broth microdilution method
# Format: functional
readout.name: fractional inhibitory concentration index (FICI)

| molecule | reported.result |
| --- | --- |
| OC1CCCc2nc(Nc3ccc4ccccc4c3)sc21 (stereo not drawn) | 0.53 |
| O=C(OC1CCCc2nc(Nc3ccc(F)cc3)sc21)n1ccnc1 (stereo not drawn) | 1.03 |

Then there is this molecule:
q: Form: Entry = CCOC1CCCc2nc(Nc3ncccn3)sc21 (stereo not drawn) | System = Klebsiella pneumoniae | fractional inhibitory concentration index (FICI) = ____
a: 0.53

###

Please go through the items and note down their MIC.
# Tested on: Klebsiella pneumoniae
# protocol.details: Synergistic antibacterial activity against Klebsiella pneumoniae SIPI-KPN-1712 assessed as polymixin B MIC at 4 ug/ml by broth microdilution method (reference value: 32 ug/ml)
# Assay type: functional
Number plus unit, in that order.

Record excerpt, results attached:
| compound | reported.result |
| --- | --- |
| COC1CCCc2nc(Nc3ccnc(Cl)c3)sc21 (stereo not given) | 4 µg/mL |
| COC1CCCc2nc(Nc3ccc(C(F)(F)F)cc3Cl)sc21 (stereo not given) | 4 µg/mL |
| COC1CCCc2nc(Nc3nccs3)sc21 (stereo not given) | 32 µg/mL |

Hey, can you go through the list below and give me MIC for every item?
1. COC1CCCc2nc(Nc3cccc(Br)c3)sc21 (stereo not given)
2. OC1CCCc2nc(Nc3ccc(C(F)(F)F)cc3)sc21 (stereo not given)
3. COC1CCCc2nc(Nc3ccccc3Cl)sc21 (stereo not given)
4. COC1CCCc2nc(Nc3ncccn3)sc21 (stereo not given)
5. CCOC1CCCc2nc(Nc3ncccn3)sc21 (stereo not given)
6. COc1cc(Nc2nc3c(s2)C(OC)CCC3)cc(OC)c1OC (stereo not given)

a:
16 µg/mL
16 µg/mL
32 µg/mL
16 µg/mL
16 µg/mL
16 µg/mL

For the 8 compounds below, give their MIC values.
1. COC1CCCc2nc(Nc3c(F)cccc3F)sc21 (stereo not given)
2. CCc1ccc(Nc2nc3c(s2)C(OC)CCC3)cc1 (stereo not given)
3. CCCOC1CCCc2nc(Nc3ccc(F)cc3)sc21 (stereo not given)
4. OC1CCCc2nc(Nc3ccc4ccccc4c3)sc21 (stereo not given)
5. COC1CCCc2nc(Nc3cccc(C(F)(F)F)c3)sc21 (stereo not given)
6. FC(F)(F)c1ccc2nc(Nc3ccccc3)sc2c1
7. Cc1ccc(Nc2nc3c(s2)C(OC(=O)n2ccnc2)CCC3)cc1 (stereo not given)
8. COC1CCCc2nc(Nc3cccc(Cl)c3)sc21 (stereo not given)

a:
1. 32 µg/mL
2. 32 µg/mL
3. 16 µg/mL
4. 16 µg/mL
5. 16 µg/mL
6. 16 µg/mL
7. 32 µg/mL
8. 8 µg/mL

The following compounds each have a reported value; give each one's MIC.
1. COC1CCCc2nc(Nc3cccc(F)c3)sc21 (stereo not given)
2. COCCOC1CCCc2nc(Nc3ccc(C)cc3)sc21 (stereo not given)
3. O=C(OC1CCCc2nc(Nc3ccc(Cl)cn3)sc21)n1ccnc1 (stereo not given)

a:
1. 32 µg/mL
2. 32 µg/mL
3. 16 µg/mL
